I'd be grateful if you could share measured MIC90 for these entries.
Provide only the numeric value, understood in µM.

[in] Give the observed MIC90 of Clc1ccc(SSc2ccc(Cl)cc2)cc1 [Bis (4-chlorophenyl) disulfide, Bis(4-chlorophenyl) disulfide] for Staphylococcus epidermidis ATCC 35984.
[out] 30

[in] Give the observed MIC90 of Fc1ccc(SSc2ccc(F)cc2)cc1 [Bis (4-fluorophenyl) disulfide, Bis(4-fluorophenyl) disulfide] for Staphylococcus epidermidis ATCC 35984.
[out] 60

---

Tested on: Pseudomonas aeruginosa ATCC 27853
Assay: MIC assay (growth inhibition of planktonic microorganisms)
Assay type: cell-based
Conditions: Pseudomonas aeruginosa, ATCC27853; reduction of final OD600 by 90%, 24 h at 37° C., MHB-II; read-out: P. aeruginosa MIC90
I'd be grateful if you could share measured MIC90 for these entries.
Provide only the numeric value, understood in µM.

[in] Find the measured MIC90 of Fc1ccc(SSc2ccc(F)cc2)cc1 [Bis (4-fluorophenyl) disulfide, Bis(4-fluorophenyl) disulfide] and report it.
[out] 250

[in] Find the measured MIC90 of Clc1ccc(SSc2ccc(Cl)cc2)cc1 [Bis (4-chlorophenyl) disulfide, Bis(4-chlorophenyl) disulfide] and report it.
[out] 30

---

Tested on: Staphylococcus epidermidis ATCC 35984
Test: MIC assay (growth inhibition of planktonic microorganisms)
Assay type: cell-based
Conditions: reduction of final OD600 by 90%, 24 h at 37° C., MHB-II
measuredEndpoint: S. epidermidis MIC90 (µM)
Provide only the numeric value, understood in µM.

[in] Find the measured S. epidermidis MIC90 of [O-][S+](Sc1ccc(F)cc1)c1ccc(F)cc1 (centres unmarked) [Bis (4-fluorophenyl) thiosulfinate, Bis(4-fluorophenyl) thiosulfinate] and report it.
[out] 250

[in] Find the measured S. epidermidis MIC90 of O=S(=O)(Sc1ccc(Cl)cc1)c1ccc(Cl)cc1 [Bis (4-chlorophenyl) thiosulfonate, Bis(4-chlorophenyl) thiosulfonate] and report it.
[out] 60

[in] Find the measured S. epidermidis MIC90 of CC(C)SS(=O)(=O)C(C)C [Di-isopropyl thiosulfonate] and report it.
[out] 2000

[in] Find the measured S. epidermidis MIC90 of CCCSS(=O)(=O)CCC [Di-n-propyl thiosulfonate, reference compound] and report it.
[out] 250

[in] Find the measured S. epidermidis MIC90 of [O-][S+](Sc1ccc(Cl)cc1)c1ccc(Cl)cc1 (centres unmarked) [Bis (4-chlorophenyl) thiosulfinate, Bis(4-chlorophenyl) thiosulfinate] and report it.
[out] 20

---

measuredEndpoint: MIC50 (µM)
Provide only the numeric value, understood in µM.

[in] Give the observed MIC50 of Fc1ccc(SSc2ccc(F)cc2)cc1 [Bis (4-fluorophenyl) disulfide, Bis(4-fluorophenyl) disulfide] for Staphylococcus epidermidis ATCC 35984.
[out] 60

[in] Give the observed MIC50 of Clc1ccc(SSc2ccc(Cl)cc2)cc1 [Bis (4-chlorophenyl) disulfide, Bis(4-chlorophenyl) disulfide] for Staphylococcus epidermidis ATCC 35984.
[out] 10
